parameterMeasured: melting point (°C)
Give the value, in units of °C, as a plain number.

stdin: Input Cc1cc(C)cc(-c2nnc(C#N)o2)c1 , output reported melting point.
stdout: 127

stdin: Input CCCC1=C(C#N)C(c2ccccc2Cl)c2c(n[nH]c2C)N1 (stereo not given) , output reported melting point.
stdout: 260

---

parameterMeasured: melting point

stdin: Input COc1ccccc1NC(=O)Nc1nc(Nc2ccccc2-c2ccccc2)nc(N2CCCCC2C(=O)O)n1 (stereo not given) , output reported melting point.
stdout: 150 to 154 °C

stdin: Input O=C(Nc1nc(=O)c2cnn3c2n1CC=C3c1cccc(C(F)(F)F)c1)OCC(Cl)(Cl)Cl , output reported melting point.
stdout: 225 to 226 °C

stdin: Input Oc1ccc(-c2ccc3c(-c4ccccc4)c(O)ccc3c2)cc1 , output reported melting point.
stdout: 142 to 146 °C

stdin: Input CCOC(=O)CCCOc1c(Br)cc(Br)c(C(N)=O)c1Br , output reported melting point.
stdout: 138 to 140 °C

stdin: Input CC(/C=C/C(=O)OC(C)(C)C)=C\c1ccc(N)cc1 , output reported melting point.
stdout: 99 to 101 °C

stdin: Input Oc1cc(CN/C=C2\CN=Cc3ccc(I)cc32)ccc1OC(F)F , output reported melting point.
stdout: 254 to 255 °C

stdin: Input CC1=NN(c2ccccc2)C(=O)C1C(=O)Nc1ccc(O)cc1 (stereo not given) , output reported melting point.
stdout: 135 to 140 °C

stdin: Input CC1NC(c2ccc(Cl)cc2)=NO1 (stereo not given) , output reported melting point.
stdout: 110 to 112 °C

stdin: Input CCC(C(=O)O)c1ccccc1Br (stereo not given) , output reported melting point.
stdout: 37 to 39 °C

stdin: Input O=S(=O)(CC(F)(F)F)c1nc2cc(F)ccc2[nH]1 , output reported melting point.
stdout: 160 to 162 °C

---

Kindly supply the reported melting point values for the records listed here.

stdin: Input O=C(F)c1c(Cl)ccc2cc(C(F)(F)F)cnc12 , output reported melting point.
stdout: 98 to 99 °C

stdin: Input O=C1C(CCO)Oc2ccccc2N1Cc1ccccc1 (stereo not given) , output reported melting point.
stdout: 83 to 85.5 °C

stdin: Input CCOC(=O)C(C)(C)Oc1ccc(OCCc2nc(-c3ccc(C(N)=O)cc3)oc2C)cc1 , output reported melting point.
stdout: 112 °C

stdin: Input CCn1cc(C(=O)O)c(=O)c2ccc(N3CCNCC3)nc21 , output reported melting point.
stdout: 272 to 273 °C

stdin: Input COc1nc2ccccc2n(-c2ccc(Cl)cc2)c1=O , output reported melting point.
stdout: 245 to 247 °C

stdin: Input O=C1NC(Cc2ccncc2)(Cc2ccncc2)C(=O)N1C12CC3CC(CC(C3)C1)C2 , output reported melting point.
stdout: 284 to 286 °C

stdin: Input NNC(=O)c1cnc2n(c1=O)CCCCC2 , output reported melting point.
stdout: 184 to 186 °C

stdin: Input CNC(=O)Nc1snc(S(C)=O)c1C#N (stereo not given) , output reported melting point.
stdout: 241 °C

stdin: Input Brc1cccc(C=C2c3ccccc3CCc3ccccc32)c1 , output reported melting point.
stdout: 105 °C

stdin: Input Nc1cccc(-c2nn(Cc3oc4ccccc4c(=O)c3-c3ccccc3)c3ncnc(N)c23)c1 , output reported melting point.
stdout: 157 to 159 °C

---

Kindly supply the reported melting point values for the records listed here.

stdin: Input CS(=O)(=O)c1ccc(-c2cnn(CC(=O)c3ccc(C#N)cc3)c(=O)c2-c2ccc(F)cc2)cc1 , output reported melting point.
stdout: 188 to 189 °C

stdin: Input COC(=O)C1=C(c2ccccc2)C(c2ccccc2)OC1=O (stereo not given) , output reported melting point.
stdout: 113 to 115 °C

stdin: Input O=C1Nc2cccnc2N(C(=O)N2CCC(CCCN3CCCCC3)CC2)c2ccccc21 , output reported melting point.
stdout: 200 °C

stdin: Input O=C1NC2c3ccccc3CC2O1 (stereo not given) , output reported melting point.
stdout: 94 to 95 °C

stdin: Input Fc1cc(OCc2ccccc2)cnc1Cl , output reported melting point.
stdout: 48 to 52 °C

The measured values listed here are drawn from a melting point compilation (Tetko et al.; mined from patent text by program, amines drawn as free bases though some values may be those of a salt).
